Assay: inhibition of 3D7 malaria parasite growth – strain 3D7 (AID 2306);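 note: 0% = DMSO wells and 100% = chloroquine plus artemisinin control wells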
Settings: P. falciparum 3D7 erythrocytic growth, LDH absorbance, 72 h; at 2 µM; active compounds read high
measure: growth inhibition (%)

{"molecule": "CC(c1cccc(S(=O)(=O)NCc2ccc(Cl)cc2Cl)c1)N1CCC(N2CCCCC2)CC1 (centres undefined)", "value-observed": 100}
{"molecule": "N#Cc1ccc(N2CCN(Cc3ccc(-c4cccc(-c5nc6ccccc6[nH]5)c4)cc3)CC2)nc1", "value-observed": 95}
{"molecule": "CCN1CCC(N(Cc2ccc(-c3ccc(C(F)(F)F)cc3)cc2)C(=O)Cn2c(CCc3cccc(F)c3F)nc(=O)c3ccccc32)CC1", "value-observed": 95}
{"molecule": "Cc1cc(N[C@@H](CC(C)C)C(=O)Nc2ccccc2)nc(NCCc2ccc(F)cc2)n1", "value-observed": 101}

---

Form field: inhibition (one value per entry).
Test: human hepatoma cell viability loss – ATP luminescence, cytotoxicity control for P. falciparum antimalarial project, primary screen (AID 2303);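 note: 0% = DMSO wells and 100% = digitonin-killed cells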
Settings: HepG2 viability, 24-48 h, at 10 µM, active compounds read high
measure: inhibition (%)

{"compound": "O=c1cc(NCCCNC2CCOc3c(I)cc(Cl)cc32)[nH]c2ccccc12 (stereo not drawn)", "measure": "inhibition", "value-observed": -10}
{"compound": "COc1ccc(N2CCN(CCCCNC(=O)c3ccc(NC(=O)c4cc(Cl)cc(Cl)c4)cc3)CC2)c(OC)c1", "measure": "inhibition", "value-observed": 21}
{"compound": "COc1ccc(NC(=O)/C=C/c2ccc(-c3ccccc3)cc2)cc1N1CCN(C)CC1", "measure": "inhibition", "value-observed": 21}
{"compound": "COc1ccc(C)cc1NC(=O)CSc1nc2cccnc2n1C1CCCCC1", "measure": "inhibition", "value-observed": 14}
{"compound": "COc1cc(C)cc(CN2CCC(Cc3ccccc3)CC2)c1O", "measure": "inhibition", "value-observed": 35}
{"compound": "CC(C)c1ccc(OCCCON2C(N)=NC(N)=NC2(C)C)cc1", "measure": "inhibition", "value-observed": 69}
{"compound": "CCCCC1(NC(=O)[C@@H](Nc2ccc(C#N)c3ccccc23)C2CCCCC2)CCCCC1", "measure": "inhibition", "value-observed": 8}
{"compound": "O=C(Cn1c(=O)cnc2ccccc21)Nc1cccc(C(=O)Nc2cccc(C(F)(F)F)c2)c1", "measure": "inhibition", "value-observed": -12}
{"compound": "O=C(C=Cc1ccc(Cl)c(Cl)c1)NCCCCCN1CCC(CCNC(=O)C(c2ccccc2)c2ccccc2)CC1", "measure": "inhibition", "value-observed": 61}
{"compound": "COc1ccc(C(=C(C)CC(C)C(=O)O)c2ccccc2)cc1 (stereo not drawn)", "measure": "inhibition", "value-observed": 6}
{"compound": "CCc1cn2c3c(cc(C(=O)N[C@@H](Cc4ccccc4)[C@H](O)CNCc4ccc(C)cc4)cc13)N(C)S(=O)(=O)CC2", "measure": "inhibition", "value-observed": -4}
{"compound": "NC(=O)c1cccc(Nc2nccc(Nc3ccc4[nH]c(-c5ccccc5)cc4c3)n2)c1", "measure": "inhibition", "value-observed": 28}
{"compound": "O=C(NC1CCN(Cc2ccccc2)CC1)c1cc(-c2cccnc2)nc2ccc(Cl)cc12", "measure": "inhibition", "value-observed": -3}
{"compound": "Cc1cccc2[nH]c(-c3cccc(-c4cccc(CN5CCC(CO)CC5)c4)c3)nc12", "measure": "inhibition", "value-observed": 4}
{"compound": "O=C(NC1CCC(CCN2Cc3cccc(F)c3C2)CC1)c1cccc(-c2cccnc2)c1 (stereo not drawn)", "measure": "inhibition", "value-observed": 16}
{"compound": "CC1CN(c2cc(=O)n(Cc3cccc(NC(=O)Nc4ccc(-c5ccccc5)cc4)c3)cn2)CC(C)N1 (stereo not drawn)", "measure": "inhibition", "value-observed": 2}
{"compound": "CC1(C(=O)Nc2ccc([N+](=O)[O-])cc2O)CC2c3ccccc3C1c1ccccc12 (stereo not drawn)", "measure": "inhibition", "value-observed": 37}
{"compound": "NCC1CCCN1Cc1ccc(-c2cccc(-c3nc4ccc(C(F)(F)F)cc4[nH]3)c2)cc1 (stereo not drawn)", "measure": "inhibition", "value-observed": 24}
{"compound": "COc1cc2nc(N3CCN(C(=O)c4c(Cl)nsc4-c4ccccc4Cl)CC3)nc(N)c2cc1OC", "measure": "inhibition", "value-observed": 57}
{"compound": "COc1ccc(Oc2ccc(-c3c(C)[nH]c(C)c(Cl)c3=O)cc2)cc1", "measure": "inhibition", "value-observed": -2}
{"compound": "CCCC(CNCc1cccc(OCC)c1)CNc1cc(=O)c2ccccc2[nH]1 (stereo not drawn)", "measure": "inhibition", "value-observed": -4}
{"compound": "CC(C)C(=O)ONC1=NC(C)(C)N(OCCCOc2cc(Cl)c(Cl)cc2Cl)C(N)=N1", "measure": "inhibition", "value-observed": 64}
{"compound": "CCOC(=O)c1ccc(NC(=O)N[C@@H](Cc2ccc(O)cc2)C(=O)NC2CCN(Cc3ccc4c(c3)OCO4)CC2)cc1", "measure": "inhibition", "value-observed": -1}
{"compound": "CC1CC1C(=O)NC1CCN(CC2(c3ccccc3)CCCCC2)CC1 (stereo not drawn)", "measure": "inhibition", "value-observed": -1}
{"compound": "O=C(Nc1cc(Cl)ccc1-n1cncn1)C1(c2ccccc2)CC1", "measure": "inhibition", "value-observed": 3}
{"compound": "COc1cc(C(=O)NC2CCN(Cc3ccccc3)CC2)ccc1-c1nc2c(Cl)cc(C(F)(F)F)cc2[nH]1", "measure": "inhibition", "value-observed": 7}
{"compound": "COc1ccc2nc(-c3ccc(C(=O)NCCCN4CCN(c5cc(Cl)ccc5OC)CC4)cc3OC)[nH]c2c1", "measure": "inhibition", "value-observed": -5}
{"compound": "CCCCC(NCC)c1ccc(OCCOc2ccc(C(CCCC)NCC)cc2)cc1 (stereo not drawn)", "measure": "inhibition", "value-observed": 100}
{"compound": "Cc1ccc2[nH]c3c(c2c1)CC(C(=O)NCCC(C)C)NC31CCN(Cc2ccccc2)CC1 (stereo not drawn)", "measure": "inhibition", "value-observed": 15}
{"compound": "COc1ccccc1CN1CCC(NC(=O)c2ccc(-c3cccc(Cl)c3)s2)CC1", "measure": "inhibition", "value-observed": 49}
{"compound": "Cc1cc(CN2CCCN(c3ccc4c(c3)CCN(Cc3ccc(-c5ncc[nH]5)cc3)CC4)CC2)n(C)n1", "measure": "inhibition", "value-observed": 5}
{"compound": "COc1ccc(-n2cc(CNCCCn3ccnc3)c(-c3cccc(F)c3)n2)cc1", "measure": "inhibition", "value-observed": 21}
{"compound": "CC(C)C(NC(=O)c1c(F)cccc1F)C(=O)Nc1ccc(Cc2nc3ccccc3s2)cc1 (stereo not drawn)", "measure": "inhibition", "value-observed": 0}
{"compound": "CC(OC(=O)c1ccc(C(=O)NCC2CC2)cc1)C(C)(C)C (stereo not drawn)", "measure": "inhibition", "value-observed": 10}
{"compound": "c1cc(-c2ccc(CNCCCN3CCOCC3)cc2)cc(-c2nc3ccccc3[nH]2)c1", "measure": "inhibition", "value-observed": 26}
{"compound": "C=CCC(CC=C)N1C(=O)C(c2ccccc2)(c2ccccc2)N=C1N", "measure": "inhibition", "value-observed": 35}
{"compound": "COc1ccc2nccc(N3CCC(SCCNS(=O)(=O)c4ccc5c(c4)NC(=O)CS5)C3)c2n1 (stereo not drawn)", "measure": "inhibition", "value-observed": 20}
{"compound": "COc1ccc(S(=O)(=O)Nc2cc(C)cc(Br)c2OC)cc1N1CCN(C(=O)C(Cl)(Cl)Cl)CC1", "measure": "inhibition", "value-observed": 9}

---

Test: antimalarial activity against Dd2 strain (AID 2302);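 note: 0% = DMSO untreated growth and 100% = chloroquine plus artemisinin killed control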
Settings: P. falciparum Dd2 in RBCs, LDH growth readout, 72 h; at 2 µM
The source made the active and inactive calls.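 Rule for the calls: active = growth inhibition above 50% at the single 2 µM test dose, taken to imply half-maximal potency below 2 µM; inactive = the rest.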
Labels: active, inactive

{"compound": "FC(F)(F)c1cccc(CCNc2nccc(NCc3ccc(Cl)cc3Cl)n2)c1", "assigned-class": "active"}
{"compound": "C[C@@H](N)C#Cc1cc2c(Nc3ccc(OCc4cccc(F)c4)c(Cl)c3)ncnc2s1", "assigned-class": "inactive"}
{"compound": "CO/C(=C\\C=C\\c1cc2cc(Cl)c(Cl)cc2[nH]1)C(=O)NCCCN1CCN(c2cccc(CCO)c2)CC1", "assigned-class": "inactive"}
{"compound": "Cc1cc(N[C@@H](CC(C)C)C(=O)NCCOc2ccccc2)nc(NCCc2ccccc2)n1", "assigned-class": "inactive"}
{"compound": "CCC(CC)(Cc1ccccc1)NC(=O)[C@H](CC(C)C)Nc1ccc(C#N)c2ccccc12", "assigned-class": "active"}
{"compound": "CCCCc1cc(N2CCC(NC(C)=O)C2)nc(Nc2ccc(C)cc2)n1 (stereo not given)", "assigned-class": "inactive"}
{"compound": "Cc1cc(O)c(CNC2CCCCC2)cc1C", "assigned-class": "active"}
{"compound": "Fc1ccc2nc(-c3ccc(-c4ccc(CNCCc5cccnc5)cc4)s3)[nH]c2c1", "assigned-class": "active"}
{"compound": "COc1ccc2ncc(C#N)c(CCN3CCC(NCc4ccc5c(c4)OCCO5)CC3)c2c1", "assigned-class": "inactive"}
{"compound": "CN(c1ccc(NC(=O)c2ccc(F)cc2)cc1)C1CCN(Cc2cccc(F)c2)C1 (stereo not given)", "assigned-class": "active"}
